- ASSAYED_TARGET: SpCas9:gRNA complex (Streptococcus pyogenes serotype M1, UniProt Q99ZW2)
- Construct: His6 (N, cleaved yes); made in house; host or cells: E. coli BL21 Star (DE3)
- Sequence (Q99ZW2 whole entry, one chain of several): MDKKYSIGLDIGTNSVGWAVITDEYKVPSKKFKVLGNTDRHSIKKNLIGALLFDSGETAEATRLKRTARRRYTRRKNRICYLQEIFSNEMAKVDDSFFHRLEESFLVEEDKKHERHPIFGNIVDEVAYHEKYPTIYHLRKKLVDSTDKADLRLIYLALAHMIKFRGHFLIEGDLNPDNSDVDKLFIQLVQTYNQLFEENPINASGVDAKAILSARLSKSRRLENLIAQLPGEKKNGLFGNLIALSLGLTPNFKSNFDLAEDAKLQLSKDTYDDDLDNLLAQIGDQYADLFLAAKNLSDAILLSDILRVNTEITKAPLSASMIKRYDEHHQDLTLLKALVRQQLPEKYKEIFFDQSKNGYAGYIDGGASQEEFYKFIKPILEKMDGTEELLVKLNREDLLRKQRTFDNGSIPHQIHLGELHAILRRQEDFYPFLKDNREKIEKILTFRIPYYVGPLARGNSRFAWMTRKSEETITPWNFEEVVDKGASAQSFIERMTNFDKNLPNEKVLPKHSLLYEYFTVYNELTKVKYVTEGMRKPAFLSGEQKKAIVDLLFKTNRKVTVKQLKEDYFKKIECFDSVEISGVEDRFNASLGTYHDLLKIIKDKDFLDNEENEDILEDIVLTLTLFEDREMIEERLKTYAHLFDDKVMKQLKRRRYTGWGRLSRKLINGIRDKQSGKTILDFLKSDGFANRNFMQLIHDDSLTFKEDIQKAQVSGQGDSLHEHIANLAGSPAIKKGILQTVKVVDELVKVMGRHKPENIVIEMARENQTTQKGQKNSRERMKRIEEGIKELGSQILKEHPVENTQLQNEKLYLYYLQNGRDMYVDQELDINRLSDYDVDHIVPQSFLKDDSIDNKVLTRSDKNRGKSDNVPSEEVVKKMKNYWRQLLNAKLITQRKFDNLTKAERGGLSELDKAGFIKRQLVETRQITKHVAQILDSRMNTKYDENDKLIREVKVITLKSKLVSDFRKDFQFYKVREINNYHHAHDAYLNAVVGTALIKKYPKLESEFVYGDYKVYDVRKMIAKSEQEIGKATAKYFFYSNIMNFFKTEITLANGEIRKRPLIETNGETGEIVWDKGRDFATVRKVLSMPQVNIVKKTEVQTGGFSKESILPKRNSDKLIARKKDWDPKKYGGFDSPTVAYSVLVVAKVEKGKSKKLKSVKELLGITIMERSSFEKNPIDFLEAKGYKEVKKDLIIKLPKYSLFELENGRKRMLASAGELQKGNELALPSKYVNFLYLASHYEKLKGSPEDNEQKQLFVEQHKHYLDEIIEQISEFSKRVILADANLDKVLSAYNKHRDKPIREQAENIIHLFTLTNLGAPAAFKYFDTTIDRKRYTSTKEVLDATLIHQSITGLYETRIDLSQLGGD
- TEST_DETAILS: 19F NMR binding assay
- ASSAY_CONTEXT: 50 μM ligand; 20 mM Tris pH 7.4; 280 K; read-out: binding constant Kd (method of Shortridge et al., peak intensities)
pKd: −log10 of the molar value.
QUANTITY_NAME: pKd

Supply recorded pKd for "OC[C@H]1Nc2ccc(-c3cccc(F)c3)cc2[C@H]2[C@@H]1CCN2Cc1ccncc1" here.
~5.66
